System: HS 578T breast
Assay: NCI tumour cell line growth inhibition, 48 h; in the data active means GI50 below about 0.43 µM; inactive means the rest
Respond with a class label; see Y for active, N for inactive

-- ask What classification did CN1CCN(Cc2ccc(NC(=O)c3cncc(C#Cc4c(N)ncc5c(F)cccc45)c3)cc2C(F)(F)F)CC1 end up with in this test?
-- reply N

-- ask Can you handle COC1=CC(c2ccc[nH]2)=N/C1=C\c1[nH]c(C)c(C(=O)Oc2ccccc2)c1C next?
-- reply Y

-- ask Can you handle Cc1cncc(-c2nc(NCCc3c[nH]c4ccccc34)c3ncn(C(C)C)c3n2)c1 next?
-- reply N

-- ask Can you handle CON=C1C[C@]2(C[C@@H]3C[C@@H](C/C=C(\C)C[C@@H](C)/C=C/C=C4\CO[C@@H]5[C@H](O)C(C)=C[C@@H](C(=O)O3)[C@]45O)O2)O[C@H](/C(C)=C/C(C)C)[C@H]1C next?
-- reply N

---

Test system: CCRF-CEM leukemia
Assay: NCI tumour cell line growth inhibition, 48 h
Can you tell me TGI for the items I'm about to list?

-- ask Hello, I am looking for reported TGI with CCRF-CEM leukemia for CCCCCCCCCC(=O)NCCc1c[nH]c2ccc(OC)cc12 . Could you help?
-- reply 37.5 µM

-- ask Can you handle O=C[C@]12CC=C3OC4OC5(CCCCC5)OC4[C@H]3[C@H]1C(=O)C=CC2=O (stereo partly specified) next?
-- reply 9.3 µM

-- ask Can you handle Cc1ccccc1C=NC12CC3CC(CC(C3)C1)C2 next?
-- reply > 100 µM

-- ask Can you handle COC(=O)C(=NNc1ccccc1[N+](=O)[O-])C(=O)OC next?
-- reply > 100 µM

-- ask Can you handle N#CC(C(=O)/C(=N/NC(=O)c1ccccc1O)C(C#N)c1ccc(Br)cc1)c1ccc(Br)cc1 (stereo unspecified) next?
-- reply 76.4 µM

-- ask Can you handle CC(C(=O)NCCNC(=O)CCCC(=O)N(C)O)C(=O)NCCNC(=O)CCCC(=O)N(C)O next?
-- reply > 100 µM

-- ask Can you handle O=C(CCc1ccc(O)c(O)c1)NCCc1ccccc1 next?
-- reply > 90.8 µM

-- ask Can you handle CC(C)C1CC(CO)(CNc2nc(N)nc(Cl)c2/C=N\O)C1 (stereo unspecified) next?
-- reply > 79.2 µM

-- ask Can you handle Cc1ccc(NC(=O)CCc2nnc3s/c(=C\c4cccc([N+](=O)[O-])c4)c(=O)n23)cc1 next?
-- reply > 100 µM

-- ask Can you handle O=C1C(Cl)=C(Cl)C(=O)N1c1ccccc1Cl next?
-- reply 19.3 µM

-- ask Can you handle CSCCC(NC(=O)Cc1ccc(C(=O)c2ccccc2)cc1)C(=O)N1CCN(CCCCN2c3ccccc3Sc3cc(N=[N+]=[N-])ccc32)CC1 (stereo unspecified) next?
-- reply > 100 µM

-- ask Can you handle N#CC(C(=O)CCC(=O)Nc1ccc(Cl)cc1)c1ccc(Cl)cc1 (stereo unspecified) next?
-- reply > 100 µM

-- ask Can you handle O=[N+]([O-])c1ccc(NNN=Nc2ccc(-c3nc4ccccc4[nH]3)cc2)c([N+](=O)[O-])c1 next?
-- reply > 100 µM

-- ask Can you handle O=c1c2cccc(F)c2sc2c(NCCCNCCO)nc3ccccc3c12 next?
-- reply 3.87 µM

-- ask Can you handle O=C1c2cccc([N+](=O)[O-])c2C(=O)c2nccnc21 next?
-- reply 5.65 µM

-- ask Can you handle Clc1ccc(OCc2nnc3sc(SSc4nn5c(COc6ccc(Cl)cc6)nnc5s4)nn23)cc1 next?
-- reply > 100 µM

-- ask Can you handle O=c1sc(Nc2ccc3ccccc3c2Cl)nc2ccccc12 next?
-- reply > 100 µM

-- ask Can you handle Cc1ccc(S(=O)(=O)NN=C2C(C)(C)CC2(C)C)cc1 next?
-- reply > 100 µM

-- ask Can you handle O=c1ccc2c(Cl)cccc2o1 next?
-- reply > 100 µM

-- ask Can you handle CCOC(=O)NC(Nc1ccc(S(=O)(=O)Nc2ccc(OC)nn2)cc1)(C(F)(F)F)C(F)(F)F next?
-- reply 70.4 µM

-- ask Can you handle Cc1cn(CC2=NC3CCCCC3N2)c(=O)[nH]c1=O (stereo unspecified) next?
-- reply > 100 µM

---

Can you tell me TGI for the items I'm about to list?
System: K-562 leukemia
Experiment: NCI tumour cell line growth inhibition, 48 h

-- ask Any idea what TGI was measured for O=C1c2cccc([N+](=O)[O-])c2C(=O)c2nccnc21 ?
-- reply 4.17 µM

-- ask Can you handle CC(C)(C)C(O)CC(O)(C(F)(F)F)C(F)(F)F (stereo not given) next?
-- reply > 100 µM

-- ask Can you handle COc1ccc(C(OC(=O)[C@H](O[Si](C)(C)C(C)(C)C)[C@@H](NC(=O)c2ccccc2)c2ccccc2)c2ccc(OC)cc2)cc1 next?
-- reply > 100 µM

-- ask Can you handle COC(=O)CNC(=O)CNC(=O)CSc1nnc(COc2ccc(Cl)cc2)n1-c1ccccc1 next?
-- reply > 100 µM

-- ask Can you handle CCCC(=O)N(C)N=Nc1ccc(C(=O)OCC)cc1 next?
-- reply > 100 µM

-- ask Can you handle CCCCOC(=O)/C=C\C(=O)NC(N)=O next?
-- reply > 100 µM

-- ask Can you handle C[C@@H](Oc1ccc(Oc2cnc3ccc(Cl)cc3n2)cc1)C(=O)O next?
-- reply > 100 µM

-- ask Can you handle COc1ccc(N2C(=O)C(=O)N(C)C2=O)c2ccccc12 next?
-- reply > 10 µM

-- ask Can you handle CCOc1ccc(N2C(=O)NC3(c4ccccc4)N(C)C(=O)N(C)C23c2ccccc2)cc1 (stereo not given) next?
-- reply > 100 µM

-- ask Can you handle O=C1C(Cl)=C(N2CCN(CCOCCO)CC2)C(=O)c2ccccc21 next?
-- reply > 21.7 µM

---

Test system: HOP-92 NSCLC
Test: NCI tumour cell line growth inhibition, 48 h
Where a SMILES comes first, the peptide text is derived from it. The star is where a group is joined. Boc = CC(C)(C)OC(=O)*
Can you tell me TGI for the items I'm about to list?

-- ask Any idea what TGI was measured for Cn1nc(-c2ccccc2)c2c(/C=C/c3ccc(Cl)cc3)onc2c1=O ?
-- reply 57.1 µM

-- ask Can you handle Cc1cc(O[C@@H]2O[C@@H](C)[C@H](O)[C@@H](O)[C@H]2O)c2c3c(c(O[C@@H]4O[C@@H](C)[C@H](O)[C@@H](O)[C@H]4O)cc2c1)C(=O)c1c(O)cccc1C3=O next?
-- reply > 30 µM

-- ask Can you handle C=CCOC1CC(n2cnc3c(N)ncnc32)OC1CO (configuration not stated) next?
-- reply > 100 µM

-- ask Can you handle CC(=O)N(C)c1cc(NCc2ccccc2)ccc1OCc1ccccc1 next?
-- reply 30 µM

-- ask Can you handle Cc1cc(N(CCC#N)CCC#N)ccc1/C=C1N=C(/C=C/c2ccccc2)N(c2ccc(S(N)(=O)=O)cc2)C\1=O next?
-- reply > 100 µM

-- ask Can you handle COC(=O)CC1C2(C)C3=C(C)C(c4ccoc4)CC3OC2C2OC(=O)C3(C)C=CC(=O)C1(C)C23 (configuration not stated) next?
-- reply 5.52 µM

-- ask Can you handle Cc1cn(CC2=NC3CCCCC3N2)c(=O)[nH]c1=O (configuration not stated) next?
-- reply > 100 µM

-- ask Can you handle C=C1C2C[C@@H]3O[C@H]4C[C@H]5O[C@@]6(C[C@@H]7O[C@]8(C[C@H](C)[C@@H]9O[C@@H]%10CC(C=O)O[C@@H]%10C[C@@H]9O8)C[C@H](C)[C@@H]7O6)C[C@H]5O[C@H]4[C@H](C)[C@H]3OC(=O)C[C@H]3CC[C@@H]4OC5[C@H]6O[C@]7(CC[C@H]8CC(=C)[C@H](CC[C@@H](C[C@H]1C)O2)O8)CC6O[C@@H]5[C@@H](O7)[C@H]4O3 (some centres not stated) next?
-- reply > 0.42 µM

-- ask Can you handle COc1ccc(C2CC(c3ccccc3)=NN2C(=O)c2cc(OC)c(OC)c(OC)c2)cc1O (configuration not stated) next?
-- reply 33.2 µM

-- ask Can you handle N.N.N.N.N.N#Cc1nn[n-]n1.[Cl-].[Co+3] next?
-- reply > 100 µM

-- ask Can you handle NS(=O)(=O)c1ccc(N=Nc2c(O)[nH]c3ccc(C(=O)NCCc4cnc[nH]4)cc23)cc1 next?
-- reply > 25 µM

-- ask Can you handle Brc1c2c(c(Br)c3nsnc13)N=S=N2 next?
-- reply 44.8 µM

-- ask Can you handle Cc1ccc(NC(=O)CC(=O)N2N=C(N3CCCCC3)CC2c2ccccc2)cc1 (configuration not stated) next?
-- reply > 100 µM

-- ask Can you handle O=C(Nc1ccc(Oc2ccc(NC(=O)Nc3ccccc3Cl)cc2)cc1)Nc1ccccc1Cl next?
-- reply 9.53 µM

-- ask Can you handle O=C1C(Cl)=C(Cl)C(=O)N1c1ccccc1Cl next?
-- reply > 79.4 µM

-- ask Can you handle O=C(CCc1ccc(O)c(O)c1)NCCc1ccccc1 next?
-- reply > 100 µM

-- ask Can you handle CC(NC(=O)C1CCCN1C(=O)CNC(=O)OC(C)(C)C)C(=O)O (stereo not drawn) (Boc-Gly-Pro-Ala-OH; configuration not given here) next?
-- reply > 100 µM
